# Test system: Acinetobacter baumannii
# assay-overview: Antibacterial activity against Acinetobacter baumanii assessed as inhibition of bacterial growth measured after 24 hrs by two-fold serial dilution method
# Assay type: functional
Note to self: use fulfilled only for MIC readings below 60 µg/mL; a reading exactly at 60 µg/mL still gets not fulfilled.

// below: answered compounds
Exam item: Does the reported MIC of O=C(/C(=C/c1ccc[nH]1)n1cnc2cc(Cl)ccc2c1=O)c1nccs1 stay below 60 µg/mL?
Marked response: not fulfilled

Exam item: Does the reported MIC of O=C(/C(=C/c1ccc(C(F)(F)F)cc1)n1cnc2cc(Cl)ccc2c1=O)c1nccs1 stay below 60 µg/mL?
Marked response: fulfilled

Exam item: Does the reported MIC of O=C(/C(=C/c1ccc(Cl)cc1)n1cnc2cc(Cl)ccc2c1=O)c1nccs1 stay below 60 µg/mL?
Marked response: not fulfilled

Exam item: Does the reported MIC of O=C(/C(=C/c1ccc(C(F)(F)F)cc1)n1cnc2c(Cl)cc(Cl)cc2c1=O)c1nccs1 stay below 60 µg/mL?
Marked response: fulfilled

Exam item: Does the reported MIC of O=C(/C(=C/c1cccc(Cl)c1)n1cnc2cc(Cl)ccc2c1=O)c1nccs1 stay below 60 µg/mL?
Marked response: fulfilled

---
Exam item: Does the reported MIC of O=C(/C(=C/c1ccccc1)n1cnc2cc(Cl)ccc2c1=O)c1nccs1 stay below 60 µg/mL?
Marked response: fulfilled

Exam item: Does the reported MIC of O=C(/C(=C/c1ccc(F)cc1)n1cnc2cc(Cl)ccc2c1=O)c1nccs1 stay below 60 µg/mL?
Marked response: not fulfilled

Source: ChEMBL document CHEMBL5036317
